Cited source for all entries: ChEMBL document CHEMBL5058577

- Tested on: Fibroblast
- protocol-description: Multiplex assay against human fibroblast
- Format: toxicity, cell-based
- condition-set: 12 h, 10 µM, compound concentration 10 uM, replicate 1
value-kind: Population Membrane Permeable-Phenotype (%)
In your response, put the unit directly after the numeric value.

Known Population Membrane Permeable-Phenotype (%) results, listed for orientation:
Exam item: Look up and report measured Population Membrane Permeable-Phenotype (%) (Fibroblast) for the following compound: `CN1CCN(c2cc(-c3ccccc3)nc(N)n2)CC1`
Marked response: 0%

Exam item: Tell me Population Membrane Permeable-Phenotype (%) of `COc1ccccc1N1CCN(C[C@@H](C(=O)NC(C)(C)C)c2ccccc2)CC1.Cl.Cl` when tested on Fibroblast.
Marked response: 1%

Exam item: Give Population Membrane Permeable-Phenotype (%); test system Fibroblast; compound Cl.N=C(N)NC(=O)Cc1c(Cl)cccc1Cl [GUANFACINE HYDROCHLORIDE]
Marked response: 1%

Exam item: Report the value of Population Membrane Permeable-Phenotype (%) obtained on Fibroblast for `CC(C)(C)c1cc(NC(=O)Nc2ccc(-c3cn4c(n3)sc3cc(OCCN5CCOCC5)ccc34)cc2)no1` .
Marked response: 0%

Exam item: Return reported Population Membrane Permeable-Phenotype (%) for target or system Fibroblast, item `CC[C@@H](C)Nc1nc(C)nc2c(-c3ccc(OC)nc3C)c(C)nn12` .
Marked response: 0%

***
Exam item: Provide Population Membrane Permeable-Phenotype (%), tested on Fibroblast, for `CC(/C=C1\SC(=S)N(CCCC(=O)Nc2ccc(C(=O)O)c(O)c2)C1=O)=C\c1ccccc1` .
Marked response: 0%

Exam item: Provide measured Population Membrane Permeable-Phenotype (%) on Fibroblast for `Cc1cccc(NC(=O)CN2CCC(c3ccccn3)CC2)c1.Cl.Cl` please.
Marked response: 1%

Exam item: Specify Population Membrane Permeable-Phenotype (%) for `CC(C)COc1ccc(CNC(=O)N(Cc2ccc(F)cc2)C2CCN(C)CC2)cc1` , system Fibroblast.
Marked response: 0%

Exam item: Report Population Membrane Permeable-Phenotype (%) from Fibroblast testing of `N#Cc1cc(F)cc(-c2nc(-c3ccc(F)cn3)no2)c1`
Marked response: 2%

Exam item: Give Population Membrane Permeable-Phenotype (%) only, for `CCCCC(=O)N(Cc1ccc(-c2ccccc2-c2nnn[nH]2)cc1)[C@H](C(=O)O)C(C)C` , using Fibroblast data.
Marked response: 3%

Exam item: Would you please give the reported Population Membrane Permeable-Phenotype (%) of `Cc1noc(-c2ccc(-c3ccc(CC(=O)O)cc3)cc2)c1NC(=O)O[C@H](C)c1ccccc1Cl` with Fibroblast?
Marked response: 1%

Exam item: Report value only: Population Membrane Permeable-Phenotype (%), Fibroblast, `CCCCC1=NC2(CCCC2)C(=O)N1Cc1ccc(-c2ccccc2-c2nnn[nH]2)cc1`
Marked response: 3%

Exam item: State, for Fibroblast, measured Population Membrane Permeable-Phenotype (%) of the compound listed here: `CC(C)c1noc(N2CCC(COc3ccc(-c4ccc(S(C)(=O)=O)cc4)nc3)CC2)n1`
Marked response: 1%

* * *

- Test system: HEK-293T
- protocol-description: Multiplex assay against HEK293T
- Format: toxicity, cell-based
- condition-set: human, 48 h, 1 µM, compound concentration 1 uM, replicate 1
Below, each entry is listed with its recorded Total Cell Count.
Simply state the number, no unit and no words.

Exam item: Retrieve Total Cell Count measured for `CN(C)C(=O)Cn1cc(-c2ccc(-c3cncc4ccccc34)cc2)cn1` and print it.
Marked response: 554

Exam item: # return recorded Total Cell Count for entry `N#Cc1cc(F)cc(-c2nc(-c3ccc(F)cn3)no2)c1`
Marked response: 585

Exam item: Read the entry `COc1cccc2c1c(NS(=O)(=O)c1ccc(Cl)s1)nn2Cc1cccc(CNC(=O)C(C)(C)O)c1` and write its reported Total Cell Count.
Marked response: 1062

Exam item: Let me know recorded Total Cell Count for `CC(C)(C)c1cc(NC(=O)Nc2ccc(-c3cn4c(n3)sc3cc(OCCN5CCOCC5)ccc34)cc2)no1` , thanks.
Marked response: 851

***
Exam item: Look up and report measured Total Cell Count for this entry: Br.CS(=O)(=O)Nc1c(O)ccc2c1CCCC2C1=NCCN1 (stereo not drawn)
Marked response: 859

Exam item: Name the recorded Total Cell Count of the item O=C(NCCN1CCC(n2c(=O)[nH]c3cc(Cl)ccc32)CC1)c1ccc(F)cc1 [HALOPEMIDE] in your answer.
Marked response: 841

Exam item: Supply Total Cell Count value. Item: `Cc1onc(-c2ccccc2Cl)c1C(=O)N(C)c1ccc(Cl)cc1`
Marked response: 932

Exam item: Quick one: give measured Total Cell Count for `COc1ccccc1N1CCN(C[C@@H](C(=O)NC(C)(C)C)c2ccccc2)CC1.Cl.Cl`
Marked response: 908

Exam item: Name the recorded Total Cell Count of the molecule listed here: `Cc1noc(-c2ccc(-c3ccc(CC(=O)O)cc3)cc2)c1NC(=O)O[C@H](C)c1ccccc1Cl`
Marked response: 930

Exam item: Input `C[C@H](N)COC(=O)[C@@H](CCCCN)NC(=O)Cc1c(-c2ccc3ccccc3c2)[nH]c2c1ccc1ccccc12` , output reported Total Cell Count.
Marked response: 963
